# Tested on: PDBu receptor (phorboid receptor) of murine brain membranous fraction (BMF)
# Experiment Notes: PDBu binding inhibiting activity (PBIA): inhibition of 3H-PDBu binding to murine brain membranous fraction
# Design: species or system murine (mouse, NFS strain)
# Measurement Parameters: concentration 0.4 (unit not given)
Classification field: enter Y for Inhibition of binding of PDBu to its receptor values not below 20%, N for values below it.

# Molecule, Test Target, Answer Label
measured = [
    ("CCCCCC/C=C\\CCCCCCCC(=O)OCC(O)CO (centres unmarked)", "PDBu receptor (phorboid receptor) of murine brain membranous fraction (BMF)", "Y"),
    ("CCCCC/C=C\\C/C=C\\C/C=C\\C/C=C\\CCCC(=O)OCC(O)CO (centres unmarked)", "PDBu receptor (phorboid receptor) of murine brain membranous fraction (BMF)", "Y"),
    ("CCCCCCCCCCCCCC(=O)OCC(O)COC(=O)CCCCCCCCCCCCC [1,3-Dimyristin, reference compound]", "PDBu receptor (phorboid receptor) of murine brain membranous fraction (BMF)", "N"),
    ("CCCCCCCCCCCCCC(=O)OCC(O)CO (centres unmarked) [1-Monomyristin, reference compound]", "PDBu receptor (phorboid receptor) of murine brain membranous fraction (BMF)", "N"),
    ("CCCCCCCC/C=C\\CCCCCCCC(=O)OCC(O)CO (centres unmarked)", "PDBu receptor (phorboid receptor) of murine brain membranous fraction (BMF)", "Y"),
    ("OCC(O)CO [Glycerol, reference compound]", "PDBu receptor (phorboid receptor) of murine brain membranous fraction (BMF)", "N"),
    ("CC/C=C\\C/C=C\\C/C=C\\CCCCCCCC(=O)OCC(O)CO (centres unmarked)", "PDBu receptor (phorboid receptor) of murine brain membranous fraction (BMF)", "Y"),
    ("CCCCCCCCCCCCCC(=O)OCC(COC(=O)CCCCCCCCCCCCC)OC(=O)CCCCCCCCCCCCC [Trimystrin, reference compound]", "PDBu receptor (phorboid receptor) of murine brain membranous fraction (BMF)", "N"),
]

###

# System: PDBu receptor (phorboid receptor) of murine brain membranous fraction (BMF)
# Experiment Notes: PDBu binding inhibiting activity (PBIA): inhibition of 3H-PDBu binding to murine brain membranous fraction
# Set-up: species or system murine (mouse, NFS strain)
# Measurement Parameters: concentration 0.8 (unit not given)
Entries annotated with measured Inhibition of binding of PDBu to its receptor
Property Name: Inhibition of binding of PDBu to its receptor (%)

# Compound, Assay Result
records = [
    ("CCCCCCCC/C=C\\CCCCCCCC(=O)OCC(CO)OC(=O)CCCCCCC/C=C\\CCCCCCCC (stereo not shown) [1,2-Diolein, reference compound]", 20),
    ("CCCCCCCC/C=C\\CCCCCCCC(=O)OCC(O)CO (stereo not shown)", 63),
    ("CCCCCCCCCCCCCCCC(=O)OCC(O)COC(=O)CCCCCCCCCCCCCCC [1,3-Dipalmitin, reference compound]", -12),
    ("CCCCCCCCCCCCCCCC(=O)OCC(COC(=O)CCCCCCCCCCCCCCC)OC(=O)CCCCCCCCCCCCCCC [Tripalmitin, reference compound]", -8),
    ("CCCCC/C=C\\C/C=C\\CCCCCCCC(=O)OC[C@@H](O)CO", 94),
    ("CCCCC/C=C\\C/C=C\\CCCCCCCC(=O)OCC(COC(=O)CCCCCCC/C=C\\C/C=C\\CCCCC)OC(=O)CCCCCCC/C=C\\C/C=C\\CCCCC [Trilinolein, reference compound]", -1),
    ("CCCCC/C=C\\C/C=C\\CCCCCCCC(=O)O [Linoleic acid-Na, reference compound]", 15),
]
